// reported MIC per item
Tested on: Staphylococcus aureus SA1199B
Format: cell-based
# value in µg/mL; strip the unit string

Can you look up the measured MIC of CNC(CC(C)C)C(=O)NC1C(=O)NC(CC(N)=O)C(=O)NC2C(=O)NC3C(=O)NC(C(=O)NC(C(=O)O)c4cc(O)cc(O)c4-c4cc3ccc4O)C(OC3CC(C)(N)C(O)C(C)O3)c3ccc(c(Cl)c3)Oc3cc2cc(c3OC2OC(CO)C(O)C(O)C2OC2CC(C)(NCc3ccc(-c4ccccc4C)cc3)C(O)C(C)O2)Oc2ccc(cc2Cl)C1O (stereo not drawn) for me?
0.5

Endpoint output: MIC of CNC(CC(C)C)C(=O)NC1C(=O)NC(CC(N)=O)C(=O)NC2C(=O)NC3C(=O)NC(C(=O)NC(C(=O)O)c4cc(O)cc(O)c4-c4cc3ccc4O)C(OC3CC(C)(N)C(O)C(C)O3)c3ccc(c(Cl)c3)Oc3cc2cc(c3OC2OC(CO)C(O)C(O)C2OC2CC(C)(NCc3c4ccccc4cc4ccccc34)C(O)C(C)O2)Oc2ccc(cc2Cl)C1O (stereo not drawn) . Value?
4

###

Measured MIC values are reported for all entries that follow.
Test system: Streptococcus pyogenes C203
Assay: broth micro-dilution MIC
Type: cell-based

Consider the worked cases shown below.
Could you share which MIC value was measured for CNC(CC(C)C)C(=O)NC1C(=O)NC(CC(N)=O)C(=O)NC2C(=O)NC3C(=O)NC(C(=O)NC(C(=O)O)c4cc(O)cc(O)c4-c4cc3ccc4O)C(OC3CC(C)(N)C(O)C(C)O3)c3ccc(c(Cl)c3)Oc3cc2cc(c3OC2OC(CO)C(O)C(O)C2OC2CC(C)(NCc3c4c(cc5ccccc35)CCCC4)C(O)C(C)O2)Oc2ccc(cc2Cl)C1O (stereo not drawn) [Compound 156] ?
≤ 0.06 µg/mL

Reported MIC for CNC(CC(C)C)C(=O)NC1C(=O)NC(CC(N)=O)C(=O)NC2C(=O)NC3C(=O)NC(C(=O)NC(C(=O)O)c4cc(O)cc(O)c4-c4cc3ccc4O)C(OC3CC(C)(N)C(O)C(C)O3)c3ccc(c(Cl)c3)Oc3cc2cc(c3OC2OC(CO)C(O)C(O)C2OC2CC(C)(NCc3ccc(OCCCC#N)cc3)C(O)C(C)O2)Oc2ccc(cc2Cl)C1O (stereo not drawn) [Compound 55] : what is it?
≤ 0.06 µg/mL

Then there is this compound:
# MIC lookup, item CNC(CC(C)C)C(=O)NC1C(=O)NC(CC(N)=O)C(=O)NC2C(=O)NC3C(=O)NC(C(=O)NC(C(=O)O)c4cc(O)cc(O)c4-c4cc3ccc4O)C(OC3CC(C)(N)C(O)C(C)O3)c3ccc(c(Cl)c3)Oc3cc2cc(c3OC2OC(CO)C(O)C(O)C2OC2CC(C)(NCc3cccc(OC(=O)C4CCCCC4)c3)C(O)C(C)O2)Oc2ccc(cc2Cl)C1O (stereo not drawn) [Compound 165]
≤ 0.06 µg/mL

###

System: Streptococcus pyogenes C203
Experiment: broth micro-dilution MIC
Assay type: cell-based
Here, each record is paired with measured MIC data.

Consider the reported MIC for these molecules:
I'd like to know its MIC. The molecule in question is CCCCCC#Cc1ccc(CNC2(C)CC(OC3C(Oc4c5cc6cc4Oc4ccc(cc4Cl)C(OC4CC(C)(N)C(O)C(C)O4)C4NC(=O)C(NC(=O)C6NC(=O)C(CC(N)=O)NC(=O)C(NC(=O)C(CC(C)C)NC)C(O)c6ccc(c(Cl)c6)O5)c5ccc(O)c(c5)-c5c(O)cc(O)cc5C(C(=O)O)NC4=O)OC(CO)C(O)C3O)OC(C)C2O)cc1 (stereo not drawn)
≤ 0.06 µg/mL

Param item = CNC(CC(C)C)C(=O)NC1C(=O)NC(CC(N)=O)C(=O)NC2C(=O)NC3C(=O)NC(C(=O)NC(C(=O)O)c4cc(O)cc(O)c4-c4cc3ccc4O)C(OC3CC(C)(N)C(O)C(C)O3)c3ccc(c(Cl)c3)Oc3cc2cc(c3OC2OC(CO)C(O)C(O)C2OC2CC(C)(NCc3ccc4c(c3)CCCC4)C(O)C(C)O2)Oc2ccc(cc2Cl)C1O (stereo not drawn) ; retrieve measured MIC.
≤ 0.06 µg/mL

// next item, MIC requested
Please look up its MIC: CNC(CC(C)C)C(=O)NC1C(=O)NC(CC(N)=O)C(=O)NC2C(=O)NC3C(=O)NC(C(=O)NC(C(=O)O)c4cc(O)cc(O)c4-c4cc3ccc4O)C(OC3CC(C)(N)C(O)C(C)O3)c3ccc(c(Cl)c3)Oc3cc2cc(c3OC2OC(CO)C(O)C(O)C2OC2CC(C)(NCc3ccc(S(=O)(=O)N4CCCC4)cc3)C(O)C(C)O2)Oc2ccc(cc2Cl)C1O (stereo not drawn)
≤ 0.06 µg/mL

###

System: Staphylococcus aureus SA1199B
Type: cell-based
# key: entry, value: MIC
The reply should contain only the number, in µg/mL.

Please look up its MIC: C=CCCCCCCCCNC1(C)CC(OC2C(Oc3c4cc5cc3Oc3ccc(cc3Cl)C(OC3CC(C)(N)C(O)C(C)O3)C3NC(=O)C(NC(=O)C5NC(=O)C(CC(N)=O)NC(=O)C(NC(=O)C(CC(C)C)NC)C(O)c5ccc(c(Cl)c5)O4)c4ccc(O)c(c4)-c4c(O)cc(O)cc4C(C(=O)O)NC3=O)OC(CO)C(O)C2O)OC(C)C1O (centres unmarked)
1

Below: the item to evaluate.
# input compound: CNC(CC(C)C)C(=O)NC1C(=O)NC(CC(N)=O)C(=O)NC2C(=O)NC3C(=O)NC(C(=O)NC(C(=O)O)c4cc(O)cc(O)c4-c4cc3ccc4O)C(OC3CC(C)(N)C(O)C(C)O3)c3ccc(c(Cl)c3)Oc3cc2cc(c3OC2OC(CO)C(O)C(O)C2OC2CC(C)(NCc3cccc(OC4CCCCC4)c3)C(O)C(C)O2)Oc2ccc(cc2Cl)C1O (centres unmarked) ; wanted: its MIC
0.25

###

Parameter MIC: see the listing below.
Test system: Haemophilus influenzae RD
Assay: broth micro-dilution MIC
Assay type: cell-based
Details: Haemophilus influenzae RD

Would you mind telling me what MIC value was observed for COc1cc(CNC2(C)CC(OC3C(Oc4c5cc6cc4Oc4ccc(cc4Cl)C(OC4CC(C)(N)C(O)C(C)O4)C4NC(=O)C(NC(=O)C6NC(=O)C(CC(N)=O)NC(=O)C(NC(=O)C(CC(C)C)N(C)Cc6ccc(OCc7ccccc7)c(OC)c6)C(O)c6ccc(c(Cl)c6)O5)c5ccc(O)c(c5)-c5c(O)cc(O)cc5C(C(=O)O)NC4=O)OC(CO)C(O)C3O)OC(C)C2O)ccc1OCc1ccccc1 (centres unmarked) ?
> 64 µg/mL

# context switch: different compound, same MIC
Request the reported MIC associated with CC(C)CC(C(=O)NC1C(=O)NC(CC(N)=O)C(=O)NC2C(=O)NC3C(=O)NC(C(=O)NC(C(=O)O)c4cc(O)cc(O)c4-c4cc3ccc4O)C(OC3CC(C)(N)C(O)C(C)O3)c3ccc(c(Cl)c3)Oc3cc2cc(c3OC2OC(CO)C(O)C(O)C2OC2CC(C)(NCC3CC=CCC3)C(O)C(C)O2)Oc2ccc(cc2Cl)C1O)N(C)CC1CC=CCC1 (centres unmarked)
> 64 µg/mL

###

System: Streptococcus pyogenes C203
Assay: broth micro-dilution MIC
Type: cell-based
reportedProperty: MIC

Consider the compound CNC(CC(C)C)C(=O)NC1C(=O)NC(CC(N)=O)C(=O)NC2C(=O)NC3C(=O)NC(C(=O)NC(C(=O)O)c4cc(O)cc(O)c4-c4cc3ccc4O)C(OC3CC(C)(N)C(O)C(C)O3)c3ccc(c(Cl)c3)Oc3cc2cc(c3OC2OC(CO)C(O)C(O)C2OC2CC(C)(NCc3cccc(Oc4ccc(Cl)cc4)c3)C(O)C(C)O2)Oc2ccc(cc2Cl)C1O (stereo not drawn) and give its measured MIC.
≤ 0.06 µg/mL

MIC lookup needed for CNC(CC(C)C)C(=O)NC1C(=O)NC(CC(N)=O)C(=O)NC2C(=O)NC3C(=O)NC(C(=O)NC(C(=O)O)c4cc(O)cc(O)c4-c4cc3ccc4O)C(OC3CC(C)(N)C(O)C(C)O3)c3ccc(c(Cl)c3)Oc3cc2cc(c3OC2OC(CO)C(O)C(O)C2OC2CC(C)(NCc3cccc4c([N+](=O)[O-])cccc34)C(O)C(C)O2)Oc2ccc(cc2Cl)C1O (stereo not drawn) , thanks.
≤ 0.06 µg/mL

---
Which measured MIC value corresponds to CNC(CC(C)C)C(=O)NC1C(=O)NC(CC(N)=O)C(=O)NC2C(=O)NC3C(=O)NC(C(=O)NC(C(=O)O)c4cc(O)cc(O)c4-c4cc3ccc4O)C(OC3CC(C)(N)C(O)C(C)O3)c3ccc(c(Cl)c3)Oc3cc2cc(c3OC2OC(CO)C(O)C(O)C2OC2CC(C)(NCc3ccc(-c4ccccn4)cc3)C(O)C(C)O2)Oc2ccc(cc2Cl)C1O (stereo not drawn) ?
≤ 0.06 µg/mL

###

Test system: vancomycin-resistant enterococci
Test: broth micro-dilution, mean geometric MIC
Assay type: cell-based, Enterococcus faecium and Enterococcus faecalis
Settings: enterococci, 24-hour incubation
For each record, check the reported mean geometric MIC, Vancomycin Resistant Strains: if it is below 0.8 µg/mL write criterion met, else write criterion not met.

Bench note: check whether CNC(CC(C)C)C(=O)NC1C(=O)NC(CC(N)=O)C(=O)NC2C(=O)NC3C(=O)NC(C(=O)NC(C(=O)O)c4cc(O)cc(O)c4-c4cc3ccc4O)C(OC3CC(C)(N)C(O)C(C)O3)c3ccc(c(Cl)c3)Oc3cc2cc(c3OC2OC(CO)C(O)C(O)C2OC2CC(C)(NCc3ccc(Sc4ccccc4)cc3)C(O)C(C)O2)Oc2ccc(cc2Cl)C1O (stereo not drawn) [Compound 108] shows mean geometric MIC, Vancomycin Resistant Strains below 0.8 µg/mL
criterion not met

Does the reported mean geometric MIC, Vancomycin Resistant Strains of CNC(CC(C)C)C(=O)NC1C(=O)NC(CC(N)=O)C(=O)NC2C(=O)NC3C(=O)NC(C(=O)NC(C(=O)O)c4cc(O)cc(O)c4-c4cc3ccc4O)C(OC3CC(C)(N)C(O)C(C)O3)c3ccc(c(Cl)c3)Oc3cc2cc(c3OC2OC(CO)C(O)C(O)C2OC2CC(C)(NCc3ccc(-c4ccc(C(F)(F)F)cc4)cc3)C(O)C(C)O2)Oc2ccc(cc2Cl)C1O (stereo not drawn) [Compound 216] stay below 0.8 µg/mL?
criterion met

Please state whether mean geometric MIC, Vancomycin Resistant Strains is below 0.8 µg/mL for CNC(CC(C)C)C(=O)NC1C(=O)NC(CC(N)=O)C(=O)NC2C(=O)NC3C(=O)NC(C(=O)NC(C(=O)O)c4cc(O)cc(O)c4-c4cc3ccc4O)C(OC3CC(C)(N)C(O)C(C)O3)c3ccc(c(Cl)c3)Oc3cc2cc(c3OC2OC(CO)C(O)C(O)C2OC2CC(C)(NCc3ccc(-c4ccc(C)cc4)cc3C)C(O)C(C)O2)Oc2ccc(cc2Cl)C1O (stereo not drawn) [Compound 222]
criterion not met

Quick check: does CNC(CC(C)C)C(=O)NC1C(=O)NC(CC(N)=O)C(=O)NC2C(=O)NC3C(=O)NC(C(=O)NC(C(=O)O)c4cc(O)cc(O)c4-c4cc3ccc4O)C(OC3CC(C)(N)C(O)C(C)O3)c3ccc(c(Cl)c3)Oc3cc2cc(c3OC2OC(CO)C(O)C(O)C2OC2CC(C)(NCCc3cccc(OCc4ccccc4)c3)C(O)C(C)O2)Oc2ccc(cc2Cl)C1O (stereo not drawn) [Compound 69] have mean geometric MIC, Vancomycin Resistant Strains under 0.8 µg/mL?
criterion not met

Dear reviewer, please state whether CNC(CC(C)C)C(=O)NC1C(=O)NC(CC(N)=O)C(=O)NC2C(=O)NC3C(=O)NC(C(=O)NC(C(=O)O)c4cc(O)cc(O)c4-c4cc3ccc4O)C(OC3CC(C)(N)C(O)C(C)O3)c3ccc(c(Cl)c3)Oc3cc2cc(c3OC2OC(CO)C(O)C(O)C2OC2CC(C)(NCc3ccc(-c4ccc(C#N)cc4)cc3)C(O)C(C)O2)Oc2ccc(cc2Cl)C1O (stereo not drawn) [Compound 231] has mean geometric MIC, Vancomycin Resistant Strains strictly beneath 0.8 µg/mL.
criterion not met

Proceed to the following item.
Hello, I'm reviewing records and need to know if mean geometric MIC, Vancomycin Resistant Strains of CNC(CC(C)C)C(=O)NC1C(=O)NC(CC(N)=O)C(=O)NC2C(=O)NC3C(=O)NC(C(=O)NC(C(=O)O)c4cc(O)cc(O)c4-c4cc3ccc4O)C(OC3CC(C)(N)C(O)C(C)O3)c3ccc(c(Cl)c3)Oc3cc2cc(c3OC2OC(CO)C(O)C(O)C2OC2CC(C)(NCC3CC=CCC3)C(O)C(C)O2)Oc2ccc(cc2Cl)C1O (stereo not drawn) [Compound 47] is below 0.8 µg/mL. Could you check?
criterion not met

These entries and their values trace back to patent US5840684A.
